biological target: pdP2X7 (Ailuropoda melanoleuca); assay: Whole-cell patch clamp, ATP-evoked current, transfected HEK293
Sequence (G1M6C4 2-595): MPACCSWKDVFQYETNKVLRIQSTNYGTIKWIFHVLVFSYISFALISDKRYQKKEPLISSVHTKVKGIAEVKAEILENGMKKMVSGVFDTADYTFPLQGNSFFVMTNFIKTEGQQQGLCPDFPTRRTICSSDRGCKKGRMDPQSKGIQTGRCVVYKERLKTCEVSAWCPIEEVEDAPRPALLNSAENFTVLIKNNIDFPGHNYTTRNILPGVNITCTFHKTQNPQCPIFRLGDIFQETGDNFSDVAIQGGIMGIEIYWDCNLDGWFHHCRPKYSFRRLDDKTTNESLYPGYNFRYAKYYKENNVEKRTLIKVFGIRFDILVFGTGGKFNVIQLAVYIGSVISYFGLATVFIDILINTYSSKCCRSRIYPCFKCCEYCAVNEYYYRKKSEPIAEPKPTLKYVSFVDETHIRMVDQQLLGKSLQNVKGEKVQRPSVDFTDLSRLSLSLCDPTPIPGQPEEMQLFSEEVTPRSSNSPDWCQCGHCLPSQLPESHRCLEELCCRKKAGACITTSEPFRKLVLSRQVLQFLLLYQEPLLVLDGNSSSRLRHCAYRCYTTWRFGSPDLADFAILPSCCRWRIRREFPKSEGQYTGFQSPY
outcome.measure: IC50
Answer as a quantity: numeral, then unit.

Ask: Which IC50 is listed for C=CC[C@@H]1c2ccc(OC)c(OC)c2CN2CCc3cc4c(cc3[C@H]12)OCO4 ?
Reply: 0.754 µM

----------
target: pdP2X7 E305F (Ailuropoda melanoleuca, UniProt G1M6C4, E306F); assay: cell-based
Sequence (G1M6C4 2-595 E306F): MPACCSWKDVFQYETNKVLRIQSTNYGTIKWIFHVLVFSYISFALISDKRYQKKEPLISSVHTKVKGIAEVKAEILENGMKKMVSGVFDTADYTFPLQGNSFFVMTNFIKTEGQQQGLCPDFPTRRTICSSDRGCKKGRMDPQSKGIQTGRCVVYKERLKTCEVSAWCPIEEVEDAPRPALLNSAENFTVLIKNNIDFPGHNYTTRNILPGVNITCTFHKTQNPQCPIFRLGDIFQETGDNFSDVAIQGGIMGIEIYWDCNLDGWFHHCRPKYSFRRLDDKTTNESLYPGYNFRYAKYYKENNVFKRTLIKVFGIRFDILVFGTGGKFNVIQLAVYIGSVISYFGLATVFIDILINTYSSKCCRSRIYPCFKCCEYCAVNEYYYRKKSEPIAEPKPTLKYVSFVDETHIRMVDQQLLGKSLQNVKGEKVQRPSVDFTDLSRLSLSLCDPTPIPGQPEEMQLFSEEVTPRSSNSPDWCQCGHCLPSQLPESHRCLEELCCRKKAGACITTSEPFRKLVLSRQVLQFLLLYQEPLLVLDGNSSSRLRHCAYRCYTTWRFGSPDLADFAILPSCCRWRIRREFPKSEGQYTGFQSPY
outcome.measure: pIC50
Convention used: pIC50 is expressed as -log10 of the molar concentration.

Ask: API: value(readout=pIC50, system=pdP2X7 E305F (Ailuropoda melanoleuca, UniProt G1M6C4, E306F)) for record C=CC[C@@H]1c2ccc(OC)c(OC)c2CN2CCc3cc4c(cc3[C@H]12)OCO4
Reply: 5.80
